Test Name: cytotoxic assay, nuclei count (Hoechst, HCS)
Type: cell-based
Reported Conditions: human, HuH7 cells (hepatocellular carcinoma); 48 h treatment; read-out: Cytotoxic studies IC50 HuH7
Entries whose IC50 at 48 h is below 8 µM take T; entries at or above 8 µM take F.

compound="CC(C)(C)OC(=O)N[C@H]1CC[C@H](n2cc(COc3cccc4cnc(Nc5cc(Cl)cc(Cl)c5)nc34)nn2)CC1 [18b]" label_class=F
compound="O=[N+]([O-])c1cc(CO)ccc1-n1cc(COc2cccc3cnc(Nc4cccc(Cl)c4)nc23)nn1 [12e]" label_class=T
compound="COC(=O)c1ccc(-n2cc(COc3cccc4cnc(Nc5cccc(Cl)c5)nc34)nn2)c([N+](=O)[O-])c1 [12f]" label_class=F
compound="N[C@H]1CC[C@H](n2cc(COc3cccc4cnc(Nc5cc(Cl)cc(Cl)c5)nc34)nn2)CC1 [19b]" label_class=F
compound=Cc1ccc(-n2cc(COc3cccc4cnc(Nc5cc(Cl)cc(Cl)c5)nc34)nn2)c([N+](=O)[O-])c1 label_class=F
compound="O=[N+]([O-])c1cc(O)ccc1-n1cc(COc2cccc3cnc(Nc4cccc(Cl)c4)nc23)nn1 [12c]" label_class=T

Cited source: paper PMC9571063
